Target: ACCase (Phalaris brachystachys)
Construct: cytosolic form not separated
Measurement Description: […]bicarbonate incorporation into malonyl-CoA
Type: biochemical
Test Parameters: 1.5 mM ATP, 5 mM acetyl-CoA, 5 mM MgCl2, 15 mM NaH14CO3, pH 8.3, 34 °C; R biotype (zygosity not given); table labels herbicide diclofop-methyl, methods say DM acid; stated gain; read-out: I50
Measured Property: pIC50
Expect pIC50 as a plain number equal to -log10 of the molar concentration.

Qu. Given CC(Oc1ccc(Oc2ccc(Cl)cc2Cl)cc1)C(=O)O (stereo not shown) , state its recorded pIC50.
Ans. 5.18

###

The entries below are paired with their reported IC50.
Target: ACCase (Phalaris paradoxa)
Construct: cytosolic form not separated
Measurement Description: […]bicarbonate incorporation into malonyl-CoA
Type: biochemical
Test Parameters: 1.5 mM ATP, 5 mM acetyl-CoA, 5 mM MgCl2, 15 mM NaH14CO3, pH 8.3, 34 °C; S biotype; read-out: I50
Please state the number and follow it with the unit.

CCCC(=NOCC)C1=C(O)CC(C2CCCSC2)CC1=O (centres unmarked) [cycloxydim]    460 nM

We next turn to a different molecule, shown below.
Qu. Given CCc1cc(C)cc(CC)c1-c1c(OC(=O)C(C)(C)C)n2n(c1=O)CCOCC2 [pinoxaden] , state its recorded IC50.
Ans. 660 nM

###

Target: ACCase (Phalaris brachystachys)
Construct: cytosolic form not separated
Measurement Description: […]bicarbonate incorporation into malonyl-CoA
Assay type: biochemical
Test Parameters: 1.5 mM ATP, 5 mM acetyl-CoA, 5 mM MgCl2, 15 mM NaH14CO3, pH 8.3, 34 °C; S biotype; read-out: I50
Measured Property: pIC50
Expect pIC50 as a plain number equal to -log10 of the molar concentration.

CCc1cc(C)cc(CC)c1-c1c(OC(=O)C(C)(C)C)n2n(c1=O)CCOCC2    6.11

We next turn to a different compound, shown below.
Qu. Given CCCC(=NOCC)C1=C(O)CC(C2CCCSC2)CC1=O (centres unmarked) , state its recorded pIC50.
Ans. 6.66
